Numbers sourced from patent US11566007B2.

# target-entity: K-Ras G12C (Homo sapiens (Human), UniProt P01116+P62937, G12C)
# Sequence (P01116-2 other isoform, or with tags, fused parts or gaps G12C): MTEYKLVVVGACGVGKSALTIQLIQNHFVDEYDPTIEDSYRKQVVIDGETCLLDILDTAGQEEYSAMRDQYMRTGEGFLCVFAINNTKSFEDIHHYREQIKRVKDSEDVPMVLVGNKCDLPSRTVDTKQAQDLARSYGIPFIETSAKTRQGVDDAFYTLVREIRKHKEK
# Sequence (P62937 whole entry): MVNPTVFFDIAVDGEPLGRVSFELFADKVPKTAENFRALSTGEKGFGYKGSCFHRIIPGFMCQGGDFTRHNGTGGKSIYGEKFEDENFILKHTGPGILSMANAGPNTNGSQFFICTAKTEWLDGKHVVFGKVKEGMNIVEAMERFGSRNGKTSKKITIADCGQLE
# assay-overview: Ras-Raf (BRAF RBD) disruption / FRET / MOA assay, KRAS G12C
# Assay type: biochemical
# experimental-parameters: KRAS G12C; Ras-Raf disruption/FRET/MOA assay; read-out: IC50* KRAS G12C FRET data
# IC50 per entry

molecule | target-entity | IC50
C=CC(=O)N1CCO[C@H]2CN(C(=O)N(C)[C@H](C(=O)N[C@H]3Cc4cccc(c4)-c4ccc5c(c4)c(c(-c4cccnc4[C@H](C)OC)n5CC)CC(C)(C)COC(=O)[C@@H]4CCCN(N4)C3=O)C(C)C)C[C@H]21 (atropisomer, axis not shown) | K-Ras G12C (Homo sapiens (Human), UniProt P01116+P62937, G12C) | 10 to 100 nM

Form: molecule = CC#CC(=O)N1CC[C@@H](C(=O)N(C)[C@H](C(=O)N[C@H]2Cc3cccc(c3)-c3ccc4c(c3)c(c(-c3cccnc3[C@H](C)OC)n4CC)CC(C)(C)COC(=O)[C@@H]3CCCN(N3)C2=O)C(C)C)C1 (atropisomer, axis not shown) ; IC50 = 100 to 1000 nM

Form: molecule = CCn1c(-c2cccnc2[C@H](C)OC)c2c3cc(ccc31)-c1csc(n1)C[C@H](NC(=O)[C@H](C(C)C)N(C)C(=O)N1CC(N(C)C(=O)/C=C/CN(C)C)C1)C(=O)N1CCC[C@H](N1)C(=O)OCC(C)(C)C2 (atropisomer, axis not shown) ; IC50 = 10 to 100 nM

Form: molecule = C=CC(=O)N1CC[C@@]2(CCN([C@H](C(=O)N[C@H]3Cc4cccc(c4)-c4ccc5c(c4)c(c(-c4cccnc4[C@H](C)OC)n5CC)CC(C)(C)COC(=O)[C@@H]4CCCN(N4)C3=O)C(C)C)C2=O)C1 (atropisomer, axis not shown) ; IC50 = 100 to 1000 nM
